- tested-on: UniProt P30101
- Sequence (P30101 25-505): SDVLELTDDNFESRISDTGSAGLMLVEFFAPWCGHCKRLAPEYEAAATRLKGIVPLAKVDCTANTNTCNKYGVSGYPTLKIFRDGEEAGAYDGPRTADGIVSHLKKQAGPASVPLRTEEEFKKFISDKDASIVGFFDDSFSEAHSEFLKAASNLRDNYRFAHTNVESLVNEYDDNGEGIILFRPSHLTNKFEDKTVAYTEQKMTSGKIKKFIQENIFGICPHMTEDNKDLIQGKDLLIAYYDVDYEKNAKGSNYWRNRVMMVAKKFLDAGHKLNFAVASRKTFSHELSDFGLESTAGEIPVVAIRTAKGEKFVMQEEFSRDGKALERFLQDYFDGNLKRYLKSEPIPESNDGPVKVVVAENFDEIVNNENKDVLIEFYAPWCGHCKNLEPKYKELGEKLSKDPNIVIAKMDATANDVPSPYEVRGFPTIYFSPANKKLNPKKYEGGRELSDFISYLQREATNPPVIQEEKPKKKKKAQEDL
- experiment-notes: Di-E-GSSG fluorescent reductase assay
- Format: biochemical
measured-metric: pIC50
The value called pIC50 is obtained by taking minus log10 of the concentration in mol/L.

Q: Identify measured pIC50 obtained with UniProt P30101 for COc1cc(/C=C/[N+](=O)[O-])ccc1OC(=O)c1cccc(Cl)c1Cl .
A: 5.37

###

- tested-on: protein disulfide isomerase (PDI) (Homo sapiens, UniProt P07237)
- Sequence (P07237 18-508): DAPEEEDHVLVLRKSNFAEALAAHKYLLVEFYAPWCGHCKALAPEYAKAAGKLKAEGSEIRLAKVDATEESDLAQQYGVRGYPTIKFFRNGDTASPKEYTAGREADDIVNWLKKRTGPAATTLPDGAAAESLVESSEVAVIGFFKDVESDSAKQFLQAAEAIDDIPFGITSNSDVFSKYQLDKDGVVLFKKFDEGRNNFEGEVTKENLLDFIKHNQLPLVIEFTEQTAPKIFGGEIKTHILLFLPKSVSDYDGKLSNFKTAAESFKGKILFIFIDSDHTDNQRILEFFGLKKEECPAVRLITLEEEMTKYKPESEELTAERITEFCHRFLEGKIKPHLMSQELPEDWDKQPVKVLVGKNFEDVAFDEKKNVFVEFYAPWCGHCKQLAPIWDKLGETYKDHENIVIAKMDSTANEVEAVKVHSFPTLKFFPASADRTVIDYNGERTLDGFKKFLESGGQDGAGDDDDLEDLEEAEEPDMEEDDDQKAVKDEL
measured-metric: IC50
Express your answer as a number followed by its unit.

Q: Report IC50 under test system protein disulfide isomerase (PDI) (Homo sapiens, UniProt P07237) for COc1cc(/C=C/[N+](=O)[O-])ccc1OC(=O)c1cccc(Cl)c1Cl .
A: 1.45 µM

###

- tested-on: ERp5 (Homo sapiens, UniProt Q15084)
- Sequence (Q15084 20-440): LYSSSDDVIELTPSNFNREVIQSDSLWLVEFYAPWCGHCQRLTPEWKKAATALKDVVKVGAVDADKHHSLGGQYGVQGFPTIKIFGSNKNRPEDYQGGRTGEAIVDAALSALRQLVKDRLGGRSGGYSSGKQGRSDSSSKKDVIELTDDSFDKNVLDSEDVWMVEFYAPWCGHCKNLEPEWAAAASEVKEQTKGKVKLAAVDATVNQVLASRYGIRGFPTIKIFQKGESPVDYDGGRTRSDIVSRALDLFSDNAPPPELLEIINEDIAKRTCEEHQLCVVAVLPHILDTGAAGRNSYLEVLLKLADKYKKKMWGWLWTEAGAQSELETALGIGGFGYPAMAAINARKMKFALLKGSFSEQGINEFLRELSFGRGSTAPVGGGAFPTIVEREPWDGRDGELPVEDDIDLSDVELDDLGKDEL
measured-metric: pIC50
Entry type: numeric. Quantity: pIC50, the -log10 of concentration in molar units.

Q: Provide one value: measured pIC50 of COc1cc(/C=C/[N+](=O)[O-])ccc1OC(=O)c1cccc(Cl)c1Cl
A: 5.59
